# IC50 against NAD-dependent protein deacetylase sirtuin-1 (Homo sapiens, UniProt Q96EB6), merged from multiple literature sources
Molecular target: NAD-dependent protein deacetylase sirtuin-1 (Homo sapiens, UniProt Q96EB6)
Sequence (Q96EB6 whole entry): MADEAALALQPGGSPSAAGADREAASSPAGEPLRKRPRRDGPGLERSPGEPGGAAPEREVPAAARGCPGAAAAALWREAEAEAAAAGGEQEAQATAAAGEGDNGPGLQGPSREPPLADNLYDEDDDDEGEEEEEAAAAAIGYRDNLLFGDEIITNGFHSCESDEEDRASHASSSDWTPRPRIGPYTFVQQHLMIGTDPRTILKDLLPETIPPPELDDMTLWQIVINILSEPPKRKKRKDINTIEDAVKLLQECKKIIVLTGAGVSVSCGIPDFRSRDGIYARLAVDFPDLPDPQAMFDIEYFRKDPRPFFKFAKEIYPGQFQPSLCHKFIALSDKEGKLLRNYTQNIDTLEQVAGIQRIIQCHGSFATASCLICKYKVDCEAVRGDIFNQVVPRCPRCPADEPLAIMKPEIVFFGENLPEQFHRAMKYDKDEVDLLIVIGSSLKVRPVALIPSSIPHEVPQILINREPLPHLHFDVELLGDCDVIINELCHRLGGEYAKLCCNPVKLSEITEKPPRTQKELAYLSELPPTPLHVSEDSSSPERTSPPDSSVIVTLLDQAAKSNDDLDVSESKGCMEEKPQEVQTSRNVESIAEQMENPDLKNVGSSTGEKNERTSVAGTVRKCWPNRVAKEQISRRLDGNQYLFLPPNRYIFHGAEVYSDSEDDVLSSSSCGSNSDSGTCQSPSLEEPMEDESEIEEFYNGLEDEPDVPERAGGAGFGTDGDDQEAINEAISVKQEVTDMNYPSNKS
Answers are plain numbers, in µM.

See these solved cases before continuing.
- molecule: "CCCCCCCCCCCCCC(=S)NCCCC[C@H](NC(=O)CCOCCOCCNc1cccc2c1C(=O)N(C1CCC(=O)NC1=O)C2=O)C(=O)Nc1ccccc1 (some centres not stated)"
  IC50 (µM): 37
- molecule: "CC(=S)NCCCC[C@H](NC(=O)[C@H](CCCNC(=N)N)NC(=O)[C@H](C)NC(=O)[C@@H](NC(=O)[C@H](CCC(N)=O)NC(=O)[C@@H](N)CCCCN)[C@@H](C)O)C(=O)N[C@@H](CO)C(=O)N[C@H](C(=O)NCC(=O)NCC(=O)N[C@@H](CCCCN)C(=O)N[C@@H](C)C(=O)O)[C@@H](C)O"
  IC50 (µM): 2
- molecule: "O=C(NC(c1ccccc1)c1ccccc1)c1cc(-c2cc3ccccc3o2)nc2ccccc12"
  IC50 (µM): 171

Now, please, on to the next molecule.
Report measured IC50; entry is CCCCCCCCCCCCNC(=S)NCCCC[C@H](NC(=O)OCc1ccccc1)C(=O)Nc1cccc(O)c1
1

---

Target: UniProt:Q96EB6
Sequence (Q96EB6 whole entry): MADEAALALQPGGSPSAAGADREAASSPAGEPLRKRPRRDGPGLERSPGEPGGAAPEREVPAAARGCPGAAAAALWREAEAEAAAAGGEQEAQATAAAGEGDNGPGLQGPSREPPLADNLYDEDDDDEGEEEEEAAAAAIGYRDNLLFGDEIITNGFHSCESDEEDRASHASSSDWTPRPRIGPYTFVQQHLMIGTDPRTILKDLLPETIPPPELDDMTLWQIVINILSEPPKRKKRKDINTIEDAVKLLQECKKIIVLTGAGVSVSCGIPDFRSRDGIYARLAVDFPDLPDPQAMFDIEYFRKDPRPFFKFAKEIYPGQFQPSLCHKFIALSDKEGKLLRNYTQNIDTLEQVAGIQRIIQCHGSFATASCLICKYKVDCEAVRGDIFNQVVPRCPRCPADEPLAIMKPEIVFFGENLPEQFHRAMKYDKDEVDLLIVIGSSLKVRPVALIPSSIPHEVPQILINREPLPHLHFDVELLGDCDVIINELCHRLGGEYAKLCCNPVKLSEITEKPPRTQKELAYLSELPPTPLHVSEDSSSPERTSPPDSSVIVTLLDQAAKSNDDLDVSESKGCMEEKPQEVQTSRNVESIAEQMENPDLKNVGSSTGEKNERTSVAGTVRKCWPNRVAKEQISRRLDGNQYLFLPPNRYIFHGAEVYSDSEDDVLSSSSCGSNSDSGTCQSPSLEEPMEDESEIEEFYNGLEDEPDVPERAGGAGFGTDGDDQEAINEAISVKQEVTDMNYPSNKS
pIC50: −log10 of the molar value.
Field: pIC50. System: UniProt:Q96EB6. Provenance: assorted publications.
Output: class label from pIC50. Mapping: lower level (below 4), middle level (4 to below 6), upper level (6 or more)

- molecule: "O=C(On1nnc2ccccc21)c1c[nH]c2ccccc12"
  class assignment: "lower level"
- molecule: "O=C(c1ccc(Br)cc1)c1coc2c1cc(O)c1ccccc12"
  class assignment: "lower level"
- molecule: "CC(C[S+]([O-])c1cccc(/N=C/c2c(O)ccc3ccccc23)c1)c1ccccc1 (stereo not drawn)"
  class assignment: "middle level"
- molecule: "Cc1ccc2[nH]cc(C(=O)On3nnc4ccccc43)c2c1"
  class assignment: "middle level"
- molecule: "CSCC[C@H](NC(=O)[C@H](CC(C)C)NC(=O)[C@H](CCCC/N=C(/C)S)NC(=O)[C@H](CCCCN)NC(=O)[C@H](Cc1c[nH]cn1)NC(=O)[C@H](CCCN=C(N)N)NC(=O)[C@H](CO)NC(=O)[C@@H](NC(=O)[C@H](CO)NC(=O)[C@H](CCC(N)=O)NC(=O)CNC(=O)[C@H](CCCCN)NC(=O)[C@@H](N)CCCCN)[C@@H](C)O)C(=O)N[C@@H](Cc1ccccc1)C(=O)N[C@@H](CCCCN)C(=O)N[C@H](C(=O)N[C@@H](CCC(=O)O)C(=O)NCC(=O)O)[C@@H](C)O"
  class assignment: "middle level"

Category of Cc1ccccc1CN1CC(C(N)=O)Oc2ccccc21 (stereo not drawn) :
middle level

Assign a bin to NC(=O)C1CN(Cc2ccccc2I)c2ccccc2O1 (stereo not drawn)
upper level

Class (by measured pIC50) for NC(=O)CCCCC[C@H](NC(=O)OCc1ccccc1)C(=O)Nc1ccccc1
lower level

Which class is correct for the following molecule? N#Cc1cccc(CN2CC(C(N)=O)Oc3ccccc32)c1 (stereo not drawn)
upper level

Tag the class for CCCCCCCCCCNC(=S)NCCCC[C@H](NC(=O)OCc1ccccc1)C(=O)Nc1cccc(O)c1
upper level

Please let me know in which category the item CC(C)(C)c1ccc(-c2noc(C(=O)NNC(=S)Nc3cccc(C(F)(F)F)c3)n2)cc1 belongs.
lower level

Please classify: CCCCCCCCCCCCNC(=S)NCCCC[C@H](NC(=O)OCc1ccccc1)C(=O)Nc1ccccc1
lower level

Which pIC50 category applies to O=c1[nH]c(=O)c2cc(S(=O)(=O)Nc3cccc(CCc4ccncc4)c3)ccc2[nH]1 here?
lower level

---

Target: NAD-dependent protein deacetylase sirtuin-1 (Homo sapiens, UniProt Q96EB6)
Sequence (Q96EB6 whole entry): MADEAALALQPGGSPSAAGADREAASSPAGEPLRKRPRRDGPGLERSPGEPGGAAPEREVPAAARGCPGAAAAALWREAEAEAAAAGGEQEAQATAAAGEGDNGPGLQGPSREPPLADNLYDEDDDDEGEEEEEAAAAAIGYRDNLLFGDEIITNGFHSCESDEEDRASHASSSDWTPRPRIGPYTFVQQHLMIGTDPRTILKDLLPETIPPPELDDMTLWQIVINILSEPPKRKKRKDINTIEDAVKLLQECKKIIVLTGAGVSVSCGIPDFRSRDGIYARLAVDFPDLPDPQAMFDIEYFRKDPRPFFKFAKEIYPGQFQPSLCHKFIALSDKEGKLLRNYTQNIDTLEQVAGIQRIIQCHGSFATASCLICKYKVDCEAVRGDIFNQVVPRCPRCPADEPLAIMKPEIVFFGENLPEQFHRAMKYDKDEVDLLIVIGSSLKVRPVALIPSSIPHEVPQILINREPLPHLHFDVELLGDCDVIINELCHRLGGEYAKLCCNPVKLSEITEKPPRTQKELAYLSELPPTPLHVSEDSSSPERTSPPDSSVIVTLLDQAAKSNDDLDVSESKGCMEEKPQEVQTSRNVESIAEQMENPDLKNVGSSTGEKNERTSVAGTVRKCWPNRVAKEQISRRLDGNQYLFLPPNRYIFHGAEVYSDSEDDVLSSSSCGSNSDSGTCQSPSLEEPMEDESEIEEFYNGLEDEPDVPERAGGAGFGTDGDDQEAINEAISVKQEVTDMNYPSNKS
Collected from the literature: IC50 of various compounds toward NAD-dependent protein deacetylase sirtuin-1 (Homo sapiens, UniProt Q96EB6).
Binary call on IC50 with cut-off 30 µM: strictly below means true, and equality or higher means false.

Answered cases to consult:
- compound: "CC1(C)CC(=O)C2=C(C1)N(Nc1ccccc1)C1=C(C(=O)CC(C)(C)C1)C2c1ccc(OCc2ccccc2)cc1"
  target system: "NAD-dependent protein deacetylase sirtuin-1 (Homo sapiens, UniProt Q96EB6)"
  class assignment: "false"
- compound: "COc1ccc(C(=O)NN2C3=C(C(=O)CC(C)(C)C3)C(c3ccc(OCc4ccccc4)cc3)C3=C2CC(C)(C)CC3=O)c(OC)n1"
  target system: "NAD-dependent protein deacetylase sirtuin-1 (Homo sapiens, UniProt Q96EB6)"
  class assignment: "true"
- compound: "CC(C)CC(=O)N1CC(C(N)=O)Oc2ccccc21 (stereo not given)"
  target system: "NAD-dependent protein deacetylase sirtuin-1 (Homo sapiens, UniProt Q96EB6)"
  class assignment: "false"

A record lists NC(=O)C1CNc2ccccc2O1 (stereo not given) . Is its IC50 below 30 µM?
false

Does the reported IC50 of CC(=O)NCCC[C@H](NC(=O)[C@H](CCCCNC(C)=S)NC(=O)[C@H](CCCNC(C)=O)NC(C)=O)C(N)=O stay below 30 µM?
true

For this compound, is IC50 lower than 30 µM? CCCNC(=S)NCCCC[C@H](NC(=O)OCc1ccccc1)C(=O)Nc1cccc(O)c1
false

Record O=c1[nH]c(=O)c2cc(S(=O)(=O)Nc3ccc(Oc4cccnc4)cc3)ccc2[nH]1 : is its IC50 strictly below 30 µM?
false

Check if IC50 falls below 30 µM for O=C(NCc1nc(-c2cccnc2)n[nH]1)c1cnccn1 .
false

Hello, is IC50 of the following compound strictly smaller than 30 µM? NC(=O)C1CN(C(=O)c2cccnc2)c2ccccc2O1 (stereo not given)
false

Item CNC(=S)NCCCC[C@H](NC(=O)OCc1ccccc1)C(=O)Nc1cccc(O)c1 : IC50 beneath 30 µM, strictly?
false
